The measurements presented in this section are drawn from patent US6114390A.

target: rat Y4 receptor (Rattus norvegicus, UniProt Q63447)
Sequence (Q63447 whole entry): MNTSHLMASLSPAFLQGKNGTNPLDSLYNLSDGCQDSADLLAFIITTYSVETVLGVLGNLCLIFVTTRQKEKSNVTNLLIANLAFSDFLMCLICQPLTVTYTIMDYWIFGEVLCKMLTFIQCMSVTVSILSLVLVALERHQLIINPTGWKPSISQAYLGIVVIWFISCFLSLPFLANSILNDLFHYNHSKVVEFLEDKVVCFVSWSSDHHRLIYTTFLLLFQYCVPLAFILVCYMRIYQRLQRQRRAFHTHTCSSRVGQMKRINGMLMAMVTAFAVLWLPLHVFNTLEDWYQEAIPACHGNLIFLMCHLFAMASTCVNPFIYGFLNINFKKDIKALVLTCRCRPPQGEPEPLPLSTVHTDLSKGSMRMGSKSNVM
parameter: IC50

# IC50 lookup, item "N=C(N)NCCC[C@@H](NC(=O)C(c1ccccc1)c1ccccc1)C(=O)NCc1ccc(CNC(N)=O)cc1" > 10 µM
